- target.or.system: T1, Boi1, P38041
- T1 sequence (P38041 1-86, looked up): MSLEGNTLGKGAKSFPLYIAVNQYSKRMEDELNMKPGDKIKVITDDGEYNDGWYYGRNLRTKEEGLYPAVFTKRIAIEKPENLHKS
- test.protocol: SPOT array
- assay.conditions: median of control spots 1162
recorded.endpoint: SPOT intensity

// below: answered binders
PALPSLPPPPLLNVD: 0
TSIEIPKRSPLRFTS: 3040
APPLPPTAPPPPSLP: 0
GAGERPRLVPRPINV: 3
KLSRGRYGLPLSSRP: 4

[P] KRRAPPPVPKKPSSR
[Q] KMSRSPPRPPSLKII
[ask] Of P versus Q , which is the one with smaller reported SPOT intensity? Write down the label of the entry you select.
[reply] Q

[P] ALKQKKIPPPFKPHL
[Q] PPLPRAPPVPPATFE
[ask] Lowest SPOT intensity? choose P or Q Reply briefly: the label of your chosen item.
[reply] P

[I] RRRDFGAPANKRPRR
[II] SRYRRPLTLLLLKPF
[III] TSFKGRPKPPKTLKH
[ask] Arrange the 3 entries by SPOT intensity so the values rise. Give the labels in the order requested.
[reply] I, III, II
